Test system: MS2 coat protein
ASSAY_NOTES: apparent KD of MS2 coat protein; designed switch direction (-1 OFF switch, 1 ON switch): -1; higher = weaker reporter binding
CONDITION_SET: input ligand: FMN 200 uM
TEST_READOUT: apparent KD of MS2 coat protein
In your response, the unit should come after the numeric value.

Look over these answered cases.
SEQUENCE_INPUT	TARGET_OF_ASSAY	apparent KD of MS2 coat protein
UAUUAUCAAGCAAGAUCCCACAUGAGGAUCACCCAUGUGCUCGUCUUAUUUCCGGAAUUAUUGGGCUCUCGUCUAAU [JR_STOV1_Sub093] (Eterna round: R97, puzzle: Sensor, turn-off variant 1)	MS2 coat protein	90.1 nM
UCUGGUCGAGGAUAUACAUGAGGAUCACCCAUGUGGUUACGUGACGAUAGUCACGAAUGUAGAAGGCGACCAGA [E3/4-A2] (Eterna round: R97, puzzle: Exclusion 3)	MS2 coat protein	326 nM

Q: Reported apparent KD of MS2 coat protein for MS2 coat protein, given CACAACAGAGGAUAUACAUGAGGAUCACCCAUGUGUUCCAGCUAGGAGACUAGCAAGUGUAGAAGGCUGUUGUG [Mat - Exclusion 3 - JL Mod - D10] (Eterna round: R97, puzzle: Exclusion 3) ?
A: 269 nM

Q: Lookup UCACGGGACUGAGGAUAUACAUCAACCAUGGUUGUAGAAGGCAGAAGGUUGGAUCAUAUACUAAACAUGAGGAUCACCCAUGUU [JR_ExcNG1_Sub030] (Eterna round: R96, puzzle: Exclusion NG 1)
A: 23.6 nM

Q: Let us now turn to AGCAUGUGAGGAUAUGCGAAGGGAAGGAGAGGGAAAGAGAAGCAGAAGGCACAUGAGGAUCACCCAUGUAAGGG [AK-MS2ROC-r4-exclusion4-8.1] (Eterna round: R97, puzzle: Exclusion 4)
A: 63.9 nM
